Please go through the items and note down their IC50.
# SYSTEM_TESTED: Ls-GABA1 (Lepeophtheirus salmonis, UniProt A0A2H4NNJ4)
# Sequence (A0A2H4NNJ4 entry or part of it): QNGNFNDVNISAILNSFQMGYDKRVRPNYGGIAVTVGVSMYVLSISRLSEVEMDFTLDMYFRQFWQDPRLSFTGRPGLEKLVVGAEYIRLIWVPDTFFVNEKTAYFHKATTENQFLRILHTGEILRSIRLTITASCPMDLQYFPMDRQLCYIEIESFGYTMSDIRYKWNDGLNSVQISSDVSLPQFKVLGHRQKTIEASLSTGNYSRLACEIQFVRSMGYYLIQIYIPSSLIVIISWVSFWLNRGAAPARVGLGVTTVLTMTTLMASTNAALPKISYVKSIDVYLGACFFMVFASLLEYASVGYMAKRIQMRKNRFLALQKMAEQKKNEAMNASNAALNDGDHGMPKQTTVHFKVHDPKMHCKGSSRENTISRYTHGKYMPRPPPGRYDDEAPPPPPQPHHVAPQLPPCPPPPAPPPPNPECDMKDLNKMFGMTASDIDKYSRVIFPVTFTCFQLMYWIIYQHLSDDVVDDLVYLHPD
# PROTOCOL: Antagonist cumulative pre-application concentration-inhibition, TEVC on oocytes expressing Ls-GABA1
Numbers only, in nM.

N#Cc1nn(-c2c(Cl)cc(C(F)(F)F)cc2Cl)c(N)c1[S+]([O-])C(F)(F)F (centres unmarked) [Fipronil, fipronil, reference compound]: 165

In the following, a different compound is considered.
Prompt line: # IC50 lookup, item Cc1cc(C2=NO[C@@](c3cc(Cl)c(Cl)c(Cl)c3)(C(F)(F)F)C2)sc1C(=O)NCC(=O)NCC(F)(F)F [Lotilaner, lotilaner]
Response line: 52.4
